Where do the numbers come from? From paper PMC9718795.

Molecular target: steroid 5α-reductase type 1 (SRD5A1) (Homo sapiens, UniProt P18405)
Construct: HaCaTs-produced SRD5A1 smoothly converted testosterone to DHT; endogenous in cells; host or cells: HaCaT human keratinocytes
Sequence (P18405 whole entry): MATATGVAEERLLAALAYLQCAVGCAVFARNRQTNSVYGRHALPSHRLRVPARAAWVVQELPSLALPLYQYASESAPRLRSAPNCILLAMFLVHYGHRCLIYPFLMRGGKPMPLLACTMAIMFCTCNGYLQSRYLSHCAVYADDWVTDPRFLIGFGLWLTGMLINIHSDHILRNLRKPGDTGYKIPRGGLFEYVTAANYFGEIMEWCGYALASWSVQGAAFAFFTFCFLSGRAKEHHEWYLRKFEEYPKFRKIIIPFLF
Assay: HaCaT cell-based SRD5A1 inhibitory assay with direct DHT detection by HPTLC
Settings: HaCaT cells, 10 µM testosterone, 24 h; read-out: IC50 of inhibition of DHT production (SRD5A1 activity)
propertyName: pIC50
Give bare numbers, as −log10 of the molar value.

Qu. Record lookup: for steroid 5α-reductase type 1 (SRD5A1) (Homo sapiens, UniProt P18405), what pIC50 belongs to O=C(C=Cc1ccc(O)c(O)c1)Nc1cc(C(F)(F)F)cc(C(F)(F)F)c1 [Compound 4] ?
Ans. 5.84
